# Tested on: blackgrass
# experimental.protocol: Test B pre/postemergence blackgrass
# Type: in vivo, Alopecurus myosuroides
# assay.setup: Preemergence, Rate 125 g/ha; scale of 0 to 10 where 0 is no effect and 10 is complete control

| compound | Blackgrass plant response rating |
| --- | --- |
| CC(C)N(C(=O)n1oc(=O)n(CC(=O)N(C)C)c1=O)c1ccccc1 [Compound 588] | 3 |
| CC[C@H](C)n1c(=O)on(C(=O)N(c2ccc(F)cc2F)C(C)C)c1=O [Compound 666] | 8 |
| C=C(C)Cn1c(=O)on(C(=O)N(c2ccccc2)C(C)C)c1=O [Compound 607] | 7 |
| CCC(C)n1c(=O)on(C(=O)N(c2ccccc2)C(C)C)c1=O (stereo not shown) [Compound 611] | 9 |
| COCCn1c(=O)on(C(=O)N(c2ccc(F)cc2F)C(C)C)c1=O [Compound 628] | 9 |
| CC(C)N(C(=O)n1oc(=O)n(C(C)C)c1=O)c1ccncc1 [Compound 663] | 0 |
| C=C(Cl)Cn1c(=O)on(C(=O)N(c2ccc(F)cc2F)C(C)C)c1=O [Compound 634] | 6 |
| CCC(C)n1c(=O)on(C(=O)N(c2ccccc2)C(C)C)c1=O (stereo not shown) [Compound 610] | 9 |
| CCC=CCn1c(=O)on(C(=O)N(c2ccccc2)C(C)C)c1=O [Compound 582] | 0 |
| CC(C)N(C(=O)n1oc(=O)n(C(CF)CF)c1=O)c1ccc(F)cc1F [Compound 595] | 9 |

---

# Test system: pigweed
# experimental.protocol: Test B pre/postemergence pigweed
# Type: in vivo, Amaranthus retroflexus
# assay.setup: Preemergence, Rate 250 g/ha; scale 0 (no effect) to 10 (complete control)
Tick satisfied if Redroot pigweed plant response rating is 8 or greater. Tick not satisfied if Redroot pigweed plant response rating is less than 8.

| molecule | class.name |
| --- | --- |
| CCOC(CC)n1c(=O)on(C(=O)N(c2ccc(F)cc2)C(C)C)c1=O (centres unmarked) | not satisfied |
| CC(C)N(C(=O)n1oc(=O)n(CCN(C)C(=O)c2ccccc2)c1=O)c1ccc(F)cc1F | not satisfied |
| COC(=O)C(c1ccccc1)n1c(=O)on(C(=O)N(c2ccccc2)C(C)C)c1=O (centres unmarked) | not satisfied |
| CC(C)N(C(=O)n1oc(=O)n(CC2CCCCO2)c1=O)c1ccc(F)cc1F (centres unmarked) | satisfied |
| COC(=O)C(c1ccccc1)n1c(=O)on(C(=O)N(c2ccc(Cl)cc2)C(C)C)c1=O (centres unmarked) | not satisfied |
| CC(C)N(C(=O)n1oc(=O)n(C[C@H](C)Cl)c1=O)c1ccc(Cl)cc1 | satisfied |
| CC(=O)NCCn1c(=O)on(C(=O)N(c2ccc(F)cc2)C(C)C)c1=O | not satisfied |

---

# Test system: velvetleaf
# experimental.protocol: Test B pre/postemergence velvetleaf
# Assay type: in vivo, Abutilon theophrasti
# assay.setup: Rate 500 g/ha, Postemergence; scale 0 to 10, 0 is no effect, 10 is complete control
Below is a list of entries, each paired with its recorded Velvetleaf plant response rating value.

| compound | target.of.assay | Velvetleaf plant response rating |
| --- | --- | --- |
| CC[C@H](C)n1c(=O)on(C(=O)N(c2ccc(Cl)cc2)C(C)C)c1=O [Compound 664] | velvetleaf | 6 |
| CC(C)N(C(=O)n1oc(=O)n(CC(F)F)c1=O)c1ccc(F)cc1 [Compound 710] | velvetleaf | 6 |
| CC(=O)OCC(CCl)n1c(=O)on(C(=O)N(c2ccc(F)cc2F)C(C)C)c1=O (racemic) [Compound 708] | velvetleaf | 5 |
| COC(=O)C(CCO)n1c(=O)on(C(=O)N(c2ccc(F)cc2)C(C)C)c1=O (centres unmarked) [Compound 680] | velvetleaf | 0 |
| C=C(Cc1ccccc1)Cn1c(=O)on(C(=O)N(c2ccccc2)C(C)C)c1=O [Compound 650] | velvetleaf | 2 |

---

# System: Italian ryegrass
# experimental.protocol: Test E Italian ryegrass
# Format: in vivo, Lolium multiflorum
# assay.setup: Preemergence, Rate 125 g/ha; 0 to 100 scale (0 no effect, 100 complete control)
Recorded measurements of Plant response rating, I. Ryegrass, one per entry
readout.label: Plant response rating, I. Ryegrass

| structure.smiles | target.of.assay | assay.result |
| --- | --- | --- |
| C=CCn1c(=O)on(C(=O)N(c2ccc(Cl)cc2)C(C)C)c1=O | Italian ryegrass | 30 |
| CC(C)N(C(=O)n1oc(=O)n(C(C)C)c1=O)c1ccc(F)cc1 | Italian ryegrass | 100 |
| CCC(CC)n1c(=O)on(C(=O)N(c2ccccc2)C(C)C)c1=O | Italian ryegrass | 50 |
| CC(C)N(C(=O)n1oc(=O)n(N(C)C)c1=O)c1ccccc1 | Italian ryegrass | 50 |
| CCn1c(=O)on(C(=O)N(c2ccccc2)C(C)C)c1=O | Italian ryegrass | 45 |

---

Entries and their Corn plant response rating values follow.
# Test system: corn
# experimental.protocol: Test B pre/postemergence corn
# Assay type: in vivo, Zea mays
# assay.setup: Preemergence, Rate 250 g/ha; scale 0 to 10, 0 is no effect, 10 is complete control

| compound | target.of.assay | Corn plant response rating |
| --- | --- | --- |
| CC(C)c1noc(C(C)C)c1-n1c(=O)on(C(=O)N(c2ccc(F)cc2)C(C)C)c1=O | corn | 0 |
| COc1nc(OC)nc(N(C(=O)n2oc(=O)n(-c3ccccc3C)c2=O)C(C)C)n1 | corn | 0 |
| CCc1cccc(C)c1-n1c(=O)on(C(=O)N(c2ccc(F)cc2)C(C)C)c1=O | corn | 0 |
| Cc1ccccc1-n1c(=O)on(C(=O)N(c2ccc(Cl)cc2Cl)C(C)C)c1=O | corn | 0 |
| Cc1nc(C)c(C(C)n2c(=O)on(C(=O)N(c3ccccc3)C(C)C)c2=O)s1 (stereo not drawn) | corn | 0 |
| CC(C)N(C(=O)n1oc(=O)n(CC2=NOCC2)c1=O)c1ccc(F)cc1 | corn | 0 |
| CC(C)N(C(=O)n1oc(=O)n(CCCl)c1=O)c1ccccc1 | corn | 8 |
| CC(C)N(C(=O)n1oc(=O)n(CCBr)c1=O)c1ccccc1 | corn | 3 |
| C=CCn1c(=O)on(C(=O)N(c2ccc(F)cc2F)C(C)C)c1=O | corn | 5 |

---

# System: sugar beet
# experimental.protocol: Test B pre/postemergence sugar beet
# Assay type: in vivo, Beta vulgaris
# assay.setup: Rate 500 g/ha, Postemergence; scale 0 to 10, 0 no effect, 10 complete control
This section presents compounds with their documented Plant response rating, Sugarbeets values.
readout.label: Plant response rating, Sugarbeets

| compound | target.of.assay | readout.label | assay.result |
| --- | --- | --- | --- |
| CC(C)C(C)n1c(=O)on(C(=O)N(c2ccccc2)C(C)C)c1=O (stereo not shown) | sugar beet | Plant response rating, Sugarbeets | 0 |
| CCC(CC)n1c(=O)on(C(=O)N(c2ccccc2)C(C)C)c1=O | sugar beet | Plant response rating, Sugarbeets | 3 |
| Cc1nsc(Cl)c1Cn1c(=O)on(C(=O)N(c2ccccc2)C(C)C)c1=O | sugar beet | Plant response rating, Sugarbeets | 4 |
| CCOC(=O)C(C)N(C(=O)n1oc(=O)n(-c2c(C)cccc2OC)c1=O)c1ccc(F)cc1 (stereo not shown) | sugar beet | Plant response rating, Sugarbeets | 0 |

---

# Tested on: blackgrass
# experimental.protocol: Test B pre/postemergence blackgrass
# Format: in vivo, Alopecurus myosuroides
# assay.setup: Postemergence, Rate 500 g/ha; scale of 0 to 10 where 0 is no effect and 10 is complete control
Note to self: Plant response rating, Blackgrass under 8 means YES, ties and anything higher get NO.

| structure.smiles | class.name |
| --- | --- |
| CC(C)N(C(=O)n1oc(=O)n(CCC2OCCCO2)c1=O)c1ccccc1 | YES |
| CCOP(=O)(Cn1c(=O)on(C(=O)N(c2ccc(Cl)cc2)C(C)C)c1=O)OCC | YES |
| COCCn1c(=O)on(C(=O)N(c2ccc(F)cc2F)C(C)C)c1=O | NO |
| CC(C)N(C(=O)n1oc(=O)n(C(CF)CF)c1=O)c1ccc(F)cc1F | NO |
| CCN(CC)C(=O)Cn1c(=O)on(C(=O)N(c2ccccc2)C(C)C)c1=O | YES |
| CC(C)N(C(=O)n1oc(=O)n(CC2CCC2)c1=O)c1ccccc1 | YES |
| COCCn1c(=O)on(C(=O)N(c2ccc(F)cc2)C(C)C)c1=O | NO |
| CC(C)N(C(=O)n1oc(=O)n(CNC(=O)c2ccccc2)c1=O)c1ccccc1 | YES |

---

# Test system: crabgrass
# experimental.protocol: Test B pre/postemergence crabgrass
# Format: in vivo, Digitaria sanguinalis
# assay.setup: Preemergence, Rate 62 g/ha; scale of 0 to 10 where 0 is no effect and 10 is complete control
Catalogue of compounds with associated Plant response rating, Crabgrass

| compound | Plant response rating, Crabgrass |
| --- | --- |
| CC(C)N(C(=O)n1oc(=O)n(CCCC(F)(F)F)c1=O)c1ccc(F)cc1F [Compound 526] | 9 |
| COC(=O)CCCn1c(=O)on(C(=O)N(c2ccc(F)cc2F)C(C)C)c1=O [Compound 513] | 4 |
| CC(C)N(C(=O)n1oc(=O)n(CC(=O)C2CC2)c1=O)c1ccc(F)cc1F [Compound 490] | 8 |
| CC(C)N(C(=O)n1oc(=O)n(CCNC(=O)CCl)c1=O)c1ccccc1 [Compound 492] | 0 |
| CC(C)N(C(=O)n1oc(=O)n(CC(=O)C2CC2)c1=O)c1ccccc1 [Compound 489] | 9 |
| CC(C)N(C(=O)n1oc(=O)n(CO)c1=O)c1ccc(F)cc1 [Compound 470] | 1 |
